Target: MDM2_(H.sapiens) SWIB domain (Homo sapiens (human))
Assay: fluorescence polarisation; displacement: complex of MDM2 (0.2-2 μM) and FITC-p53TAD_(human)^15–26 (15 nM) displaced by increasing unlabeled p53TAD peptide or p53TAD^full-length; KD calculated from IC50 (Nikolovska-Coleska et al. 2004); 20 mM sodium phosphate pH 7.4, 150 mM NaCl, 1 mM TCEP
Where no end group is shown, it is not given here.
Give Kd for every item shown.
Answers are plain numbers, in nM.

In the examples that follow, each entry is paired with its recorded Kd.
Ac-SQDETFQALWNTVT [Anguilla anguilla p53TADP2 p53TAD^15–27] | 770
Ac-SQESFEDLWKMNL [Oncorhynchus kisutch p53TADP2 p53TAD^15–27] | 790
Ac-GQCSFQQLWESNM [Oncorhynchus kisutch (coho salmon) p53TADP1a p53TAD^15–27] | 3150

Summary for this binder, Ac-SQDTFQDLWENVA [Takifugu rubripes (Japanese puffer) p53TADP1 p53TAD^15–27] : Kd is 1700
